Target Under Test: Glucocorticoid receptor (Homo sapiens) (UniProt P04150)
Sequence (P04150 whole entry, looked up): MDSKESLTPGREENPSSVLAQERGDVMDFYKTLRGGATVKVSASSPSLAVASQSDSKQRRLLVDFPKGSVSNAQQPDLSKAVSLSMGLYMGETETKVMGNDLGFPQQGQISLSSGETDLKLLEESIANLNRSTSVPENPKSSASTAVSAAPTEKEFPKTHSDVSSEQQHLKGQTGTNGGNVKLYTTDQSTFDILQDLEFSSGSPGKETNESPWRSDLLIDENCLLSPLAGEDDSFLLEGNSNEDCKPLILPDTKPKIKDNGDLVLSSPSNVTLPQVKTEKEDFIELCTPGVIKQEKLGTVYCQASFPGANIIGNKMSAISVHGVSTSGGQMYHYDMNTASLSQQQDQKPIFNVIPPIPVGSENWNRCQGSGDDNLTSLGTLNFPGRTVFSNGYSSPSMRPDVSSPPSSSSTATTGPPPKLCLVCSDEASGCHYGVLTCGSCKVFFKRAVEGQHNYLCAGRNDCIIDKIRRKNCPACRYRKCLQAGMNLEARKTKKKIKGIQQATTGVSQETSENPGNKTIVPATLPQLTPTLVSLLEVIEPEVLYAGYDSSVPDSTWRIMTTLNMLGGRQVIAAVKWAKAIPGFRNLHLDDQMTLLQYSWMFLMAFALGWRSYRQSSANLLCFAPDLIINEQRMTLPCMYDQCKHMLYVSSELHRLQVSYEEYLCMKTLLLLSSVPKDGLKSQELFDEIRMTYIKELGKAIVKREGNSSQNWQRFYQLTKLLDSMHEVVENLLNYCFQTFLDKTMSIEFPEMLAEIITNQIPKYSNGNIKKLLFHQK
Experiment Notes: GR-EFC Redistribution (AID 451); further: potency means the concentration at half of the fitted maximal effect
Setup Conditions: CHO-K1 GR-EFC translocation, beta-gal luminescence, 2 h
Experimental: NIH Molecular Libraries Screening Centers Network [MLSCN] NIH Chemical Genomics Center [NCGC] The glucocorticoid receptor (GR) is a cytoplasmic receptor that belongs to the nuclear receptor family of ligand-dependent transcription factors. […] GR-translocation was measured beta-gal enzyme activity using the PathHunter Detection Kit containing cell membrane permeablizing reagent and beta-gal substrate (DiscoveRx, Fremont, CA). […] Read plate in luminescence mode in ViewLux plate reader (PerkinElmer) […]
Active and inactive are the calls of the source. The call rests on the fitted dose curve.
Result Type: Potency

Smiles Repr	Test Value
O=C1C(O)=C(O)C(=O)C(O)=C1O	> 20.6 µM (inactive)
CCCN(CCC)S(=O)(=O)c1ccc(C(=O)O)cc1	> 20.6 µM (inactive)
COc1cc(NS(=O)(=O)c2ccc(N)cc2)ncn1	> 20.6 µM (inactive)
O=C(c1ccc(F)cc1)C1CCN(CCn2c(=S)[nH]c3ccccc3c2=O)CC1	> 46 µM (inactive)
CCCc1ncc(C[n+]2ccccc2C)c(N)n1	> 20.6 µM (inactive)
CNCCc1ccccn1	> 20.6 µM (inactive)
CCOC(=O)c1ccc(N)cc1	> 20.6 µM (inactive)
CCOc1ccc(NC(C)=O)cc1	> 20.6 µM (inactive)
CCc1cc(Cl)c(OC)c(C(=O)NC[C@@H]2CCCN2CC)c1O	> 20.6 µM (inactive)
O=C(O)CCC(=O)Nc1ccc(S(=O)(=O)Nc2nccs2)cc1	> 20.6 µM (inactive)
CC[C@H](c1ccc(O)cc1)[C@@H](CC)c1ccc(O)cc1	> 20.6 µM (inactive)
CN1CCC(OC(c2ccccc2)c2ccccc2)CC1	> 20.6 µM (inactive)
N=C(N)N1CCc2ccccc2C1	> 20.6 µM (inactive)
COc1cc(N)c(Cl)cc1C(=O)NC1CCN(Cc2ccccc2)CC1	> 20.6 µM (inactive)
CNCCCCOc1ccccc1Cc1ccccc1	> 46 µM (inactive)
CC(C)(C)NC[C@H](O)COc1cccc2c1CCCC2=O	> 20.6 µM (inactive)
CN1CCc2cccc3c2[C@H]1Cc1ccc(O)c(O)c1-3	> 46 µM (inactive)
NC(N)=NCc1cccc(I)c1	> 46 µM (inactive)
C[N+]1(C)CCC(=C(c2ccccc2)c2ccccc2)CC1	> 20.6 µM (inactive)
CCN(CC)CCNC(=O)COc1ccc(OC)cc1	> 20.6 µM (inactive)
Nc1ccc(C(=O)NCC(=O)O)cc1	> 20.6 µM (inactive)
CCCCNc1ccc(C(=O)OCCOCCOCCOCCOCCOCCOCCOCCOCCOC)cc1	> 20.6 µM (inactive)
CN(C)CCC[C@@]1(c2ccc(F)cc2)OCc2cc(C#N)ccc21	> 46 µM (inactive)

====

Tested on: PC49
Experiment Notes: qHTS profiling for inhibitors of Plasmodium falciparum proliferation (AID 504749); further: nearly all actives have a fitted effect of over 60% in size
Setup Conditions: P. falciparum in erythrocytes, SYBR Green DNA, 72 h; series mostly up to 28.7 µM
Inconclusive results are not listed. Active and inactive are the calls of the source. Calls come from the whole dose curve; as a rule, active = well fitted inhibition curve with a large enough effect; inconclusive = small, poorly fitted or top-dose-only effect; inactive = flat fitted curve, though single readings scatter.
Labels: YES for active, NO for inactive

Compound	Class
Cc1cccc(C)c1NC(=O)CN1CCCC1	NO
COc1ccc(CN(CCN(C)C)c2ncccn2)cc1	NO
CN(Cc1ccc(C(C)(C)C)cc1)Cc1cccc2ccccc12	NO
CCCCN=C(N)N=C(N)N	NO
CCOc1ccccc1OCCN[C@H](C)Cc1ccc(OC)c(S(N)(=O)=O)c1	NO
CC1=C(C(=O)O)N2C(=O)[C@@H](NC(=O)[C@H](N)c3ccccc3)[C@H]2SC1	NO
CCCN(CCC)S(=O)(=O)c1ccc(C(=O)O)cc1	NO
CC(=O)Nc1ccc(OCC(O)CNC(C)C)cc1 (configuration not stated)	NO
N#CCC(=O)NN	NO
CCOC(=O)c1c(N)sc2c1CCN(Cc1ccccc1)C2	YES
CC[C@H](c1ccc(O)cc1)[C@@H](CC)c1ccc(O)cc1	NO
CCN(CC)CCOc1ccccc1C(=O)CCc1ccccc1	NO

====

Experiment Notes: qHTS of pediatric cancer cell lines to identify multiple opportunities for drug repurposing: Confirmatory screen for SJ-GBM2 cells (AID 1347116);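 further: 48 hour compound exposure; nearly all actives have a fitted effect of over 60% in size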
Setup Conditions: SJ-GBM2 glioblastoma cells, viability; series mostly up to 45.9 µM
Description: Drug repurposing or repositioning has been offered as a strategy for drug development in oncology programs. […] [1] Shen, M et al. Quantitative high-throughput phenotypic screening of pediatric cancer cell lines identifies multiple opportunities for drug repurposing. […] Cells were assayed in growth media at a density of 500-1,000 cells/well. […] After a 15 min incubation at room temperature, samples were analyzed for luminescence intensity using a ViewLux High-throughput CCD imager equipped with clear filters.
Results filed as inconclusive are left out. Calls of active or inactive are those of the source. Calls come from the whole dose curve; as a rule, active = well fitted cell-killing curve with a large enough effect; inconclusive = small, poorly fitted or top-dose-only effect, or effect the other way; inactive = no such curve, though single readings can be large or run the other way.
Labels: 1.0 (active), 0.0 (inactive)

Smiles Repr	Class
C[C@@]12C(=O)OC(=O)[C@]1(C)C1CCC2O1	1.0
COc1ccc(C(=O)c2ccccc2)c(O)c1	0.0
Nc1nc(Cl)nc2c1ncn2[C@@H]1O[C@H](CO)[C@@H](O)[C@@H]1F	1.0
O=[N+]([O-])c1ccc(/C=N\O)o1	1.0
CCN1/C(=C/C=C/c2sc3ccccc3[n+]2CC)Sc2ccccc21	1.0

====

Tested on: ATS189
Experiment Notes: qHTS profiling for inhibitors of Plasmodium falciparum proliferation (AID 504749); further: nearly all actives have a fitted effect of over 60% in size
Setup Conditions: P. falciparum in erythrocytes, SYBR Green DNA, 72 h; series mostly up to 28.7 µM
Inconclusive results are not listed. Calls of active or inactive are those of the source. Calls follow the shape of the dose curve; as a rule, active = well fitted inhibition curve with a large enough effect; inconclusive = small, poorly fitted or top-dose-only effect; inactive = flat fitted curve, though single readings scatter.
Labels: active, inactive

Compound	Class
CC(=O)OCC(=O)[C@H]1CC[C@H]2[C@@H]3CCC4=CC(=O)CC[C@]4(C)[C@H]3CC[C@]12C	inactive
CCCCN=C(N)N=C(N)N	inactive
CNCCc1ccccn1	inactive
CCOC(=O)Nc1ccc2c(c1)N(C(=O)CCN1CCOCC1)c1ccccc1S2	inactive
NS(=O)(=O)c1cc(C(=O)O)cc(N2CCCC2)c1Oc1ccccc1	inactive
Cc1cccc(C)c1NC(=O)CN1CCCCCC1	inactive
CC(=O)NCCCCCC(=O)O	inactive
CCCN(CCC)S(=O)(=O)c1ccc(C(=O)O)cc1	inactive
CC[N+](C)(CC)CCOC(=O)C(O)(c1ccccc1)C1CCCCC1 (stereo unspecified)	inactive
C[N+]1(CC2COC(c3ccccc3)(C3CCCCC3)O2)CCCCC1 (stereo unspecified)	active
O=C(O)c1ccc(S(=O)(=O)N(Cl)Cl)cc1	inactive
Cn1c(=O)c2[nH]c(Br)nc2n(C)c1=O	inactive
Nc1ccc(C(=O)NCC(=O)O)cc1	inactive
COc1ccc(CCN(C)CCCN2CCc3cc(OC)c(OC)cc3CC2=O)cc1OC	inactive
Nc1nc(N)c(-c2ccccc2)s1	inactive
NC(=S)N/N=C/c1cccnc1	inactive
Cc1ccccc1OCC(O)CO (stereo unspecified)	inactive
CCCCCN=C(N)N/N=C/c1c[nH]c2ccc(OC)cc12	active
CCOc1ccc(NC(C)=O)cc1	inactive
CCCCCCCCNC(C)C(O)c1ccc(SC(C)C)cc1 (stereo unspecified)	active
NC(=O)c1ccccc1O	inactive
O=S(=O)(O)c1ccc(O)cc1	inactive
CCCCCCCC/C=C\CCCCCCCCN	inactive
Cc1cccc(C)c1NC(=O)CN1CCCC1	inactive
NC1CCN(c2nc3c(cc2F)c(=O)c(C(=O)O)cn3-c2ccc(F)cc2F)C1 (stereo unspecified)	inactive
CCOc1cc(OCC)c(C(=O)CCC(=O)O)cc1OCC	inactive
CCCCC(CC)COC(=O)c1ccc(N(C)C)cc1 (stereo unspecified)	inactive
O=C1C(CCS(=O)c2ccccc2)C(=O)N(c2ccccc2)N1c1ccccc1 (stereo unspecified)	inactive
CCOC(=O)[C@H](CCc1ccccc1)N[C@@H](C)C(=O)N1[C@H](C(=O)O)C[C@H]2CCCC[C@@H]21	inactive
C=C[C@@]1(C)CC(=O)[C@]2(O)[C@@]3(C)[C@@H](O)CCC(C)(C)[C@@H]3[C@H](O)[C@H](OC(C)=O)[C@@]2(C)O1	inactive
C#C[C@]1(OC(C)=O)CC[C@H]2[C@@H]3CCC4=C/C(=N/O)CC[C@@H]4[C@H]3CC[C@@]21CC	inactive
CCN(CC)CCNC(=O)COc1ccc(OC)cc1	inactive
O=C(NCCc1c[nH]c2ccccc12)c1cccnc1	inactive
CC(C)=CCOc1ccc(/C=C/C(=O)c2ccc(OCC=C(C)C)cc2OCC(=O)O)cc1	inactive
CN(Cc1ccc(C(C)(C)C)cc1)Cc1cccc2ccccc12	inactive
COc1cc(N)c(Cl)cc1C(=O)NC1CCN(Cc2ccccc2)CC1	inactive
CC(C)Cn1cnc2c1c(=O)n(C)c(=O)n2C	inactive
Cc1c(-c2ccccc2)oc2c(C(=O)OCCN3CCCCC3)cccc2c1=O	inactive
O=c1[nH]c(=O)n([C@H]2C[C@H](O)[C@@H](CO)O2)cc1F	inactive
CC(=O)Nc1ccc(OCC(O)CNC(C)C)cc1 (stereo unspecified)	inactive
CC(C)Cc1ccc(CC(=O)O)cc1	inactive
CC(C)CCCC(C)N (stereo unspecified)	inactive
Cc1cccc(C)c1NC(=O)c1ccccc1C(=O)O	inactive
CCCc1ncc(C[n+]2ccccc2C)c(N)n1	inactive
CC(C)(C)NC[C@H](O)COc1cccc2c1CCCC2=O	inactive
N=C(N)N1CCc2ccccc2C1	inactive
